The measurements presented in this section are drawn from patent US20070249670A1.

Biological target: human liver glycogen phosphorylase a (HLGPa) (Homo sapiens, UniProt P06737)
Construct: creating a full-length cDNA fused at the 5′ end to codons for methionine-glycine-alanine-histidine; 6xHis tag (leader Met-Gly-Ala-His6-Gly-Gly) (N); made in house; host or cells: E. coli (bacterial expression plasmid pTXK1007LTev)
Sequence (P06737 2-847 limits assumed): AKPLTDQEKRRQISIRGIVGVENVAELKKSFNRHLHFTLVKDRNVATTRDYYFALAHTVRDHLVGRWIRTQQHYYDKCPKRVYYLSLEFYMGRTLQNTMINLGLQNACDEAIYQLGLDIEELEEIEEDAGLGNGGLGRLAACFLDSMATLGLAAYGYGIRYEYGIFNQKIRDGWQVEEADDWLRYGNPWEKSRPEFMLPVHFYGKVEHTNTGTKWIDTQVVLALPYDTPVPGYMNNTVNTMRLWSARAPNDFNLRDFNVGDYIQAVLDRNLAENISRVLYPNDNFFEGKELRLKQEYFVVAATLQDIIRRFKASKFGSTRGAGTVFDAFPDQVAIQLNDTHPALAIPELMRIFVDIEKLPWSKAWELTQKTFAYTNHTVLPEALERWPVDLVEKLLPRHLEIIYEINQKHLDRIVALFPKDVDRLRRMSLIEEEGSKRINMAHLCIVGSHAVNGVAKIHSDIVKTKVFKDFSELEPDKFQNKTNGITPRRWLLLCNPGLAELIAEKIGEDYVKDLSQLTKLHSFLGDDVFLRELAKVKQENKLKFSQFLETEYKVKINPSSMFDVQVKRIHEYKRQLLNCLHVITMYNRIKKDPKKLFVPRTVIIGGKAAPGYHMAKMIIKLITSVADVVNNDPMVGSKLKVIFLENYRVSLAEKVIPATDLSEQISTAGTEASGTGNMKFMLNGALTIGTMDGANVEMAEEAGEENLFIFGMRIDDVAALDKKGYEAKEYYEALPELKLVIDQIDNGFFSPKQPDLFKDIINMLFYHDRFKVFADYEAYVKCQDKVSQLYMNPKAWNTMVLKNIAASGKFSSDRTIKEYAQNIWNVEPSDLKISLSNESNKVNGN
Assay: Human liver glycogen phosphorylase a enzymatic activity assay (coupled, fluorescent resorufin readout, with and without 10 mM glucose)
Format: biochemical
Conditions: human liver glycogen phosphorylase a enzymatic activity assay
assay-metric: IC50 (µM)

O=C(O)C[C@H](NC(=O)c1cc2ccccc2cc1NC(=O)Nc1ccccc1Br)C(=O)O    22.9

I = Cc1cccc(Cl)c1NC(=O)Nc1cc2ccccc2cc1C(=O)N[C@@H](CCC(=O)O)C(=O)O
II = O=C(Nc1cc2ccccc2cc1C(=O)NC(C(=O)O)[C@H]1CC[C@@H](C(F)(F)F)CC1)Nc1c(Cl)cc(OC(F)(F)F)cc1Cl (stereo partly shown)
III = Cc1ccccc1NC(=O)Nc1cc2ccccc2cc1C(=O)N[C@@H](CCC(=O)O)C(=O)O
-- ask Order field: IC50 | Direction: descending (largest first) # output: labels, in the requested order
-- reply III, I, II

###

Biological target: human liver glycogen phosphorylase a (HLGPa) (Homo sapiens, UniProt P06737)
Construct: creating a full-length cDNA fused at the 5′ end to codons for methionine-glycine-alanine-histidine; 6xHis tag (leader Met-Gly-Ala-His6-Gly-Gly) (N); made in house; host or cells: E. coli (bacterial expression plasmid pTXK1007LTev)
Sequence (P06737 2-847 limits assumed): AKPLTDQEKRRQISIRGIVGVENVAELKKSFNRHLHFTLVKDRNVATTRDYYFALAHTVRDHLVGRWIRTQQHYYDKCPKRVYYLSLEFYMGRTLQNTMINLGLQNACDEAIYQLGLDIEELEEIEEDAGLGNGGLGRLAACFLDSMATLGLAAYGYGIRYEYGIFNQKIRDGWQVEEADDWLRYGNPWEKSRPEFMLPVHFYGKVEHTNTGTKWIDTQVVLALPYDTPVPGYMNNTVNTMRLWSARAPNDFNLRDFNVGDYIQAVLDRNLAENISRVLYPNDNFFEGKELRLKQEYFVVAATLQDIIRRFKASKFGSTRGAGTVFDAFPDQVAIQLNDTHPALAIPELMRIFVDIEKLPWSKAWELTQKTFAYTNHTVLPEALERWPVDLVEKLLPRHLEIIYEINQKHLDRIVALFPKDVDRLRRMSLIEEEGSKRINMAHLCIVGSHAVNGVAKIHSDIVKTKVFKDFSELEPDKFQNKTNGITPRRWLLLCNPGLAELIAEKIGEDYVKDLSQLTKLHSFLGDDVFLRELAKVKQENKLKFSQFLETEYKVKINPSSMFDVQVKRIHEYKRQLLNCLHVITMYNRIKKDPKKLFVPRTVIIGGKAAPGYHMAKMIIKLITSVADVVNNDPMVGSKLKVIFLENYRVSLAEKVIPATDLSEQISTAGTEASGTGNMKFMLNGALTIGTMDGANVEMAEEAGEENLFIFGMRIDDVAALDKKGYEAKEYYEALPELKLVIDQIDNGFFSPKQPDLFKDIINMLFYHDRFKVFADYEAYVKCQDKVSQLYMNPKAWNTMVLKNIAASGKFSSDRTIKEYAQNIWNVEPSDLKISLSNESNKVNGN
Assay: Human liver glycogen phosphorylase a enzymatic activity assay (coupled, fluorescent resorufin readout, with and without 10 mM glucose)
Type: biochemical
Conditions: human liver glycogen phosphorylase a enzymatic activity assay
assay-metric: IC50 (nM)

Some solved entries appear below for comparison.
Cc1cccc(C)c1NC(=O)Nc1cc(F)ccc1C(=O)N[C@H](C(=O)O)C1CCCCC1    700
Cc1ccccc1NC(=O)Nc1cc2ccccc2cc1C(=O)N[C@@H](Cc1ccccc1)C(=O)O    16900
Cc1cccc(C)c1NC(=O)Nc1cc(-c2ccccc2)ccc1C(=O)N[C@H](C(=O)O)C1CCCCC1    163
CSCC[C@H](NC(=O)c1cc2ccccc2cc1NC(=O)Nc1c(C)cccc1Cl)C(=O)O    640
Cc1cccc(Cl)c1NC(=O)Nc1cc2ccccc2cc1C(=O)N[C@H](C(=O)O)[C@@H](C)O    430
Cc1cc(CC2CC2)cc(C)c1NC(=O)Nc1cc(-c2cccc(F)c2)ccc1C(=O)N[C@H](C(=O)O)[C@@H](C)OC(C)(C)C    3
O=C(Nc1cc(-c2ccccc2)sc1C(=O)O)Nc1c(Cl)cccc1Cl    890
O=C(Nc1sc(-c2cccnc2)cc1C(=O)N[C@H](C(=O)O)C1CCCCC1)Nc1c(Cl)cccc1Cl    770

I = O=C(Nc1ccccc1Cl)Nc1cc2ccccc2cc1C(=O)NC(C(=O)O)c1ccccc1 (stereo not drawn)
II = COc1cc(NC(=O)Nc2c(C)cccc2C)c(C(=O)NC(C(=O)O)c2ccccc2)cc1OC (stereo not drawn)
-- ask Endpoint returns the identifier whose IC50 is numerically larger, either I or II . Mark your answer with the label of the selected entry.
-- reply II
(II: 19600 nM, I: 7630 nM)

A = Cc1ccccc1NC(=O)Nc1cc2ccccc2cc1C(=O)N[C@@H](CC1CCCCC1)C(=O)O
B = CCc1cc(C)c(NC(=O)Nc2cc(F)ccc2C(=O)N[C@H](C(=O)O)C2CCCCC2)c(C)c1
-- ask Hi, I'm comparing A with B and wondering which one has the bigger number for IC50. Any idea? The response must carry the label of the picked entry.
-- reply A
(A: 16800 nM, B: 51 nM)

A = Cc1ccccc1CC(=O)Nc1cc2ccccc2cc1C(=O)N[C@H](C(=O)O)C1CCCCC1
B = Cc1cccc(C)c1NC(=O)Nc1cc2ccccc2cc1C(=O)NC(C(=O)O)c1ccccc1 (stereo not drawn)
-- ask Hi, I'm comparing A with B and wondering which one has the bigger number for IC50. Any idea? To answer, give the label that identifies your chosen option.
-- reply A
(A: 17000 nM, B: 660 nM)

a = Cc1ccccc1NC(=O)Nc1cc2ccccc2cc1C(=O)N[C@@H](CC(N)=O)C(=O)O
b = C[C@](NC(=O)c1ccc(F)cc1NC(=O)Nc1c(Cl)cc(OC(F)(F)F)cc1Cl)(C(=O)O)C1CCCCC1
c = O=C(Nc1sc(-c2ccc(F)cc2)cc1C(=O)N[C@H](C(=O)O)C1CCCCC1)Nc1c(Cl)cccc1Cl
d = Cc1cccc(C)c1NC(=O)Nc1cc(Cl)ccc1C(=O)N[C@H](C(=O)O)C1CCCCC1 [Example 157]
e = Cc1cc(C)c(NC(=O)Nc2cc(-c3ccc(CO)cc3)ccc2C(=O)N[C@H](C(=O)O)C2CCCCC2)c(C)c1
-- ask List by increasing IC50. Record the ranking as a list of labels in the requested order.
-- reply e, b, d, c, a

###

Molecular target: human liver glycogen phosphorylase a (HLGPa) (Homo sapiens)
Construct: creating a full-length cDNA fused at the 5′ end to codons for methionine-glycine-alanine-histidine; 6xHis tag (leader Met-Gly-Ala-His6-Gly-Gly) (N); made in house; host or cells: E. coli (bacterial expression plasmid pTXK1007LTev)
Sequence (P06737 2-847 limits assumed): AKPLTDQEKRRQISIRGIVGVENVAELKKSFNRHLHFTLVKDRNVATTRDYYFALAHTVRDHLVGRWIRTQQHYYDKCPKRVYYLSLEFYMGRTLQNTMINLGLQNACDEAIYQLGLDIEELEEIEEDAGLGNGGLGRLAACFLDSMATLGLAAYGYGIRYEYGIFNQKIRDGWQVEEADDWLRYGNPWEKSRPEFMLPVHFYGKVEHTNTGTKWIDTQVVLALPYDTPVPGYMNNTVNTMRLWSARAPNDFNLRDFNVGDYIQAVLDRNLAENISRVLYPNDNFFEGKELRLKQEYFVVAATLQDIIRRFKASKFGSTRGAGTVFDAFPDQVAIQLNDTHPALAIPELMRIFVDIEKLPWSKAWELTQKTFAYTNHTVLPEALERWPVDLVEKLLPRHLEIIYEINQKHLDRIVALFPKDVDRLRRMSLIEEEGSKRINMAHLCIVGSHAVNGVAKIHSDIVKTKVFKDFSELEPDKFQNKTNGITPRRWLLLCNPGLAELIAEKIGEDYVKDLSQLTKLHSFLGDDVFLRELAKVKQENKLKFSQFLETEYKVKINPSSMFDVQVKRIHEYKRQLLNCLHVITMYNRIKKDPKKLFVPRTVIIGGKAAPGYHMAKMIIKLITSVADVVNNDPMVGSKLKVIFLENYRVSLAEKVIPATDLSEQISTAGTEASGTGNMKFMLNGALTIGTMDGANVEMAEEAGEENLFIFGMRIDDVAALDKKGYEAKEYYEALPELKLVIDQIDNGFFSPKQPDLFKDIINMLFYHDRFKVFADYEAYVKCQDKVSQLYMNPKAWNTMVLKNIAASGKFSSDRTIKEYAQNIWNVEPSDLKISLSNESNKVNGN
Assay: Human liver glycogen phosphorylase a enzymatic activity assay (coupled, fluorescent resorufin readout, with and without 10 mM glucose)
Format: biochemical
Details: human liver glycogen phosphorylase a enzymatic activity assay
pIC50: −log10 of the molar value.
assay-metric: pIC50

I = COc1ccc(-c2cc(NC(=O)Nc3c(Cl)cccc3Cl)c(C(=O)N[C@H](C(=O)O)C3CCCCC3)s2)cc1
II = Cc1cccc(Cl)c1NC(=O)Nc1cc2ccccc2cc1C(=O)N[C@@H](Cc1ccccc1)C(=O)O
-- ask I'm curious, which of these has a smaller pIC50 number: I or II ? Answer with the label corresponding to your selection.
-- reply II
(II: 6.59, I: 7.03)
